- Tested on: HeLa
- Assay remarks: Primary qHTS to identify gynecologic anti-cancer compounds using libraries of approved drugs and bioactive compounds (AID 1345084); note: nearly all actives have a fitted effect of over 55% in size
- Test context: Gynecologic cancer cell panel viability, ATPlite luminescence, 48 h; series mostly up to 57.5 µM
Results filed as inconclusive are left out. Calls of active or inactive are those of the source. Calls come from the whole dose curve; as a rule, active = well fitted cell-killing curve with a large enough effect; inconclusive = small, poorly fitted or top-dose-only effect, or effect the other way; inactive = flat fitted curve, though single readings scatter.
Classes to choose from: active, inactive

CC(C)=CC/C=C(\C)[C@H]1CC[C@]2(C)[C@@H]1[C@H](O)C[C@@H]1[C@@]3(C)CC[C@H](O)C(C)(C)[C@@H]3[C@@H](O[C@@H]3O[C@H](CO)[C@@H](O)[C@H](O)[C@H]3O)C[C@]12C :: inactive
Nc1ncnc2c([C@@H]3N[C@H](CO)[C@@H](O)[C@H]3O)c[nH]c12 :: inactive
Cc1ccc(S(=O)(=O)n2ccc(-c3c(-c4ccc(Cl)cc4)noc3C)n2)cc1 :: inactive
O=C(CC(c1ccccc1)c1ccccc1)N1CCN(C(c2ccccc2)c2ccccc2)CC1 :: inactive
CC1=CC(=O)CC(C)(C)[C@@]1(O)CC[C@@H](C)O[C@@H]1O[C@H](CO)[C@@H](O)[C@H](O)[C@H]1O :: inactive
CNC(=O)c1ccccc1Nc1nc(Nc2ccc(N3CCNCC3)cc2)ncc1Cl :: active

Query: Entry CC1=C(C)C(=O)OC(C(C)C2CCC3C4C5OC5C5(O)CC(OC6OC(CO)C(OC7OC(C)C(O)C(O)C7O)C(O)C6O)CC(O)C5(C)C4CCC23C)C1 (configuration not stated) : call = ?
Result: inactive
